TEST_SYSTEM: human neutrophil elastase (Homo sapiens, UniProt P08246)
Construct: purchased MilliporeSigma
Sequence (P08246 30-267): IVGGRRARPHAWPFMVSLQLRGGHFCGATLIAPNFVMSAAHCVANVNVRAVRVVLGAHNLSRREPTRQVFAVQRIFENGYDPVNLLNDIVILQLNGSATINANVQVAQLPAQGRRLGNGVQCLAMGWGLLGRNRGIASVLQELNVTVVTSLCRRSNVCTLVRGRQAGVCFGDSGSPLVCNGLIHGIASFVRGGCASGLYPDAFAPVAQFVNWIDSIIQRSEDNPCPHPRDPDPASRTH
ASSAY_COMMENT: Human neutrophil protease-mediated cleavage assay using pyrene probes: neutrophil elastase
Type: biochemical
CONDITION_DETAILS: pyrene probes, 37° C.
Protocol: Human neutrophil protease-mediated cleavage assay using pyrene probes. Each test compound (10 mM in DMSO, 2 μL) was mixed with 97 μL of tris-buffered saline (TBS, pH 7.4) and 1 μL of 1-pyrenemethylamine (10 mM in DMSO, internal standard). The mixture was incubated at 37° C. for 10 min. […] Precipitated proteins were pelleted by centrifugation (15,000×g, 4° C., 30 min) and supernatant of each sample was analyzed for quantification by analytical HPLC (UV absorbance at 342 nm). […]
RESULT_TYPE: stability against human neutrophil elastase-mediated degradation (in words)

Ac-Glu-Ala-Cit-PABC-sar-pyrene [probe 3b] :: complete degradation
Ac-Glu-Ile-Cit-PABC-sar-pyrene [probe 3d] :: complete degradation
